Particulars: pH 7.4
PAMPA overview

Would you please look over these solved cases?
{"Compound": "O=c1c2cc(F)ccc2n2c(=S)[nH]nc2n1CCCO", "PAMPA": "222 ×10⁻⁶ cm/s"}
{"Compound": "CC(CN(C)C)n1c(=O)c2cc(F)ccc2n2c(=S)[nH]nc12 (centres unmarked)", "PAMPA": "186 ×10⁻⁶ cm/s"}

Could you now consider this next compound?
Look up PAMPA for this compound: `O=C(Cc1cccnc1)NCCCn1c(=O)c2cc(F)ccc2n2c(=S)[nH]nc12`
21.0 ×10⁻⁶ cm/s

---

Measurement description: in vitro
Particulars: PAMPA, pH 7.4
Papp overview

{"Compound": "CN(C)CCn1c(=O)c2cc(F)ccc2n2c(=S)[nH]nc12 [Compound 70]", "Papp": "177 ×10⁻⁶ cm/s"}

Could you now consider this next compound?
Look up Papp for this compound: COc1cccc(CC(=O)NCCCn2c(=O)c3cc(F)ccc3n3c(=S)[nH]nc23)c1 [Compound 129]
311 ×10⁻⁶ cm/s

---

Particulars: pH 7.4
Measured metric: PAMPA

Would you please look over these solved cases?
{"Molecule smiles": "O=C(Cc1ccc(Br)cc1)NCCCn1c(=O)c2cc(F)ccc2n2c(=S)[nH]nc12", "PAMPA": "767 ×10⁻⁶ cm/s"}
{"Molecule smiles": "O=C(NCCCn1c(=O)c2cc(F)ccc2n2c(=S)[nH]nc12)C1CCOCC1", "PAMPA": "8.0 ×10⁻⁶ cm/s"}
{"Molecule smiles": "Nc1nnc2n(CCc3ccccc3)c(=O)c3cc(F)ccc3n12", "PAMPA": "885 ×10⁻⁶ cm/s"}

Could you now consider this next molecule?
Look up PAMPA for this molecule: `O=C(CN1CCOCC1)NCCCn1c(=O)c2cc(F)ccc2n2c(=S)[nH]nc12`
<1 ×10⁻⁶ cm/s

---

Particulars: pH 7.4
Measured metric: PAMPA (×10⁻⁶ cm/s)
Your answer should be a plain number; it is taken to be in ×10⁻⁶ cm/s.

Look up PAMPA for this compound: `CN(C)c1ccc2c(c1)c(=O)n(CCc1ccccc1)c1n[nH]c(=S)n21`
356

---

Particulars: pH 7.4
Measured metric: PAMPA (×10⁻⁶ cm/s)
Your answer should be a plain number; it is taken to be in ×10⁻⁶ cm/s.

Would you please look over these solved cases?
{"Compound": "O=c1c2cc(F)ccc2n2cnnc2n1CCc1ccccc1", "PAMPA, ×10⁻⁶ cm/s": 924}
{"Compound": "O=c1c2cc(F)ccc2n2c(=S)[nH]nc2n1CCC1CCC(F)(F)CC1", "PAMPA, ×10⁻⁶ cm/s": 201}
{"Compound": "O=c1c2cc(F)ccc2n2c(=S)[nH]nc2n1CCc1ccccc1", "PAMPA, ×10⁻⁶ cm/s": 77.0}

Look up PAMPA for this compound: `CC(C)(C)OC(=O)NCCCCCC(=O)NCCCn1c(=O)c2cc(F)ccc2n2c(=S)[nH]nc12`
405

Entry to check: `O=c1c2ccncc2n2c(=S)[nH]nc2n1CCc1ccccc1`
202

Entry to check: `O=C(Cc1ccccc1C(F)(F)F)NCCCn1c(=O)c2cc(F)ccc2n2c(=S)[nH]nc12`
825

Entry to check: `CCCCn1c(=O)c2ccccc2n2c(S)nnc12`
77.5

Entry to check: `O=C(Cc1ccccc1)NCCCn1c(=O)c2cc(F)ccc2n2c(=S)[nH]nc12`
248

Entry to check: `CNC(=S)N1CN(CCc2ccccc2)C(=O)c2cc(F)ccc21`
161

Entry to check: `O=C(Cc1cccc(F)c1)NCCCn1c(=O)c2cc(F)ccc2n2c(=S)[nH]nc12`
364

---

Particulars: pH 7.4
PAMPA overview
Your answer should be a plain number; it is taken to be in ×10⁻⁶ cm/s.

Look up PAMPA for this compound: O=c1c2cc(Cl)ccc2n2c(=S)[nH]nc2n1CCC(F)(F)F [Compound 55]
257

Entry to check: O=c1c2cc(F)ccc2n2c(=S)[nH]nc2n1CC1CC1 [Compound 79]
46.0

Entry to check: N#Cc1ccccc1CC(=O)NCCCn1c(=O)c2cc(F)ccc2n2c(=S)[nH]nc12 [Compound 133]
156

---

Particulars: pH 7.4
Given measured PAMPA, output T if it is greater than or equal to 200 ×10⁻⁶ cm/s and F if not.

Past entries and their recorded results:
{"Molecule": "O=c1c2cc(F)ccc2n2c(=S)[nH]nc2n1CCc1cccnc1", "Label value": "F"}
{"Molecule": "NS(=O)(=O)CCCC(=O)NCCCn1c(=O)c2cc(F)ccc2n2c(=S)[nH]nc12", "Label value": "F"}
{"Molecule": "O=c1c2cc(F)ccc2n2c(=S)[nH]nc2n1CCN1CCOCC1", "Label value": "F"}
{"Molecule": "COc1ccccc1CC(=O)NCCCn1c(=O)c2cc(F)ccc2n2c(=S)[nH]nc12", "Label value": "T"}
{"Molecule": "O=c1c2cc(F)ccc2n2c(=S)[nH]nc2n1CCN1CCC(F)(F)CC1", "Label value": "T"}
{"Molecule": "O=C(Cc1ccccn1)NCCCn1c(=O)c2cc(F)ccc2n2c(=S)[nH]nc12", "Label value": "F"}
{"Molecule": "O=C(O)CCC(=O)NCCCn1c(=O)c2cc(F)ccc2n2c(=S)[nH]nc12", "Label value": "F"}
{"Molecule": "CC(=O)NCCCn1c(=O)c2cc(F)ccc2n2c(=S)[nH]nc12", "Label value": "F"}

Decide: is the reported value of PAMPA for `O=C(NCCCn1c(=O)c2cc(F)ccc2n2c(=S)[nH]nc12)c1ccccc1` equal to or greater than 200 ×10⁻⁶ cm/s?
T

Entry to check: `COc1ccc(CC(=O)NCCCn2c(=O)c3cc(F)ccc3n3c(=S)[nH]nc23)cc1`
T

---

Particulars: pH 7.4
Measured metric: PAMPA (×10⁻⁶ cm/s)
Your answer should be a plain number; it is taken to be in ×10⁻⁶ cm/s.

Would you please look over these solved cases?
{"Molecule smiles": "O=c1c2cccc(F)c2n2c(=S)[nH]nc2n1CCc1ccccc1", "Unit abbreviation": "×10⁻⁶ cm/s", "PAMPA": 141}
{"Molecule smiles": "O=c1c2cc(Br)ccc2n2c(=S)[nH]nc2n1CCc1ccccc1", "Unit abbreviation": "×10⁻⁶ cm/s", "PAMPA": 162}
{"Molecule smiles": "O=c1c2cc(F)ccc2n2c(=S)[nH]nc2n1Cc1ccccc1", "Unit abbreviation": "×10⁻⁶ cm/s", "PAMPA": 841}

Could you now consider this next compound?
Look up PAMPA for this compound: `Cc1ccc(CC(=O)NCCCn2c(=O)c3cc(F)ccc3n3c(=S)[nH]nc23)cc1`
621

---

Particulars: pH 7.4
Measured metric: PAMPA (×10⁻⁶ cm/s)
Your answer should be a plain number; it is taken to be in ×10⁻⁶ cm/s.

{"Compound": "CCCn1c(=O)c2cc(F)ccc2n2c(=S)[nH]nc12 [Compound 64]", "Quantitative readout": 195}
{"Compound": "O=C(NCCCn1c(=O)c2cc(F)ccc2n2c(=S)[nH]nc12)C1CCCC1 [Compound 108]", "Quantitative readout": 155}
{"Compound": "CC(C)(C)OC(=O)N1CC(CCn2c(=O)c3cc(F)ccc3n3c(=S)[nH]nc23)C1 [Compound 86]", "Quantitative readout": 229}
{"Compound": "O=C(Cc1cccc(Cl)c1)NCCCn1c(=O)c2cc(F)ccc2n2c(=S)[nH]nc12 [Compound 124]", "Quantitative readout": 861}
{"Compound": "O=c1c2cc(F)ccc2n2c(=S)[nH]nc2n1CCN1CCCCC1 [Compound 88]", "Quantitative readout": 358}
{"Compound": "CC(C)(C)OC(=O)Nc1ccc(CC(=O)NCCCn2c(=O)c3cc(F)ccc3n3c(=S)[nH]nc23)cc1 [Compound 135]", "Quantitative readout": 910}

Could you now consider this next compound?
Look up PAMPA for this compound: CCn1c(=O)c2ccccc2n2c(=S)[nH]nc12 [Compound 20]
427

---

Particulars: pH 7.4
PAMPA overview
Your answer should be a plain number; it is taken to be in ×10⁻⁶ cm/s.

{"Compound": "CC(=O)Nc1ccc2c(c1)c(=O)n(CCc1ccccc1)c1n[nH]c(=S)n21", "Quantitative readout": 253}
{"Compound": "CC(C)(C)OC(=O)NC1CCC(C(=O)NCCCn2c(=O)c3cc(F)ccc3n3c(=S)[nH]nc23)CC1 (centres unmarked)", "Quantitative readout": 330}

Look up PAMPA for this compound: `O=c1c2ccc(F)cc2n2c(=S)[nH]nc2n1CCc1ccccc1`
91.0
